Biological target: Retinoic acid receptor RXR-gamma (Homo sapiens, UniProt P48443)
Sequence (P48443 whole entry): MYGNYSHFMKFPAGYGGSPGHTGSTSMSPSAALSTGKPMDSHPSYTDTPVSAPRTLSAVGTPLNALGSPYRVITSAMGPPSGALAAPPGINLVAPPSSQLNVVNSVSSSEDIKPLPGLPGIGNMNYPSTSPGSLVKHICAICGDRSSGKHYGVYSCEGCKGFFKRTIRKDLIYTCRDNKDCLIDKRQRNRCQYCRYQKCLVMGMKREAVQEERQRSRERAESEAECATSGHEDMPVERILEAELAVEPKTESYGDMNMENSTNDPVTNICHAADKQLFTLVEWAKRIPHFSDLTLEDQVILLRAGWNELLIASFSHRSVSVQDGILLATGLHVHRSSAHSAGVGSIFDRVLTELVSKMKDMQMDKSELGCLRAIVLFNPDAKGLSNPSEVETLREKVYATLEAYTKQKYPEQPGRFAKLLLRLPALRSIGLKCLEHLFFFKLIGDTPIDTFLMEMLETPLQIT
compounds and their reported Kd
The figure you give is taken to be in µM; do not add the unit.

Input "Cc1cc2c(cc1-c1cc(C(=O)O)no1)C(C)(C)CCC2(C)C" . Output Kd: 8.1

Now let's try a different one.
Input "C/C(=C\c1cc(C(=O)O)no1)c1ccc2c(c1)C(C)(C)CCC2(C)C" . Output Kd: 1.4
